Where these numbers come from: patent US20220089550A1

# assay.overview: Approximate solubility of crystals of Form A at room temperature
# Type: physicochemical
# particulars: 25 °C, organic solvent or mixture, thermodynamic from solid; n-Heptane, room temperature
value.kind: solubility

Q: Returns the measured solubility for the input molecule. Input: C[C@H](NC(=O)Cn1cnc2cccc(C#N)c21)c1ccc(C(C)(C)C#N)cc1 [Form A]
Result: < 2200 µg/mL

---

# assay.overview: Approximate solubility of crystals of Form A at room temperature
# Assay type: physicochemical
# particulars: 25 °C, organic solvent or mixture, thermodynamic from solid; MEK, room temperature
value.kind: solubility

Q: Please give the measured solubility for this compound: C[C@H](NC(=O)Cn1cnc2cccc(C#N)c21)c1ccc(C(C)(C)C#N)cc1 [Form A]
Result: > 40 mg/mL

---

# assay.overview: Approximate solubility of crystals of Form A at room temperature
# Format: physicochemical
# particulars: 25 °C, organic solvent or mixture, thermodynamic from solid; DMAc, room temperature
value.kind: solubility

Q: Reported solubility for C[C@H](NC(=O)Cn1cnc2cccc(C#N)c21)c1ccc(C(C)(C)C#N)cc1 [Form A] : what is it?
Result: > 36 mg/mL

---

# assay.overview: Approximate solubility of crystals of Form A at room temperature
# Type: physicochemical
# particulars: 25 °C, organic solvent or mixture, thermodynamic from solid; EtOAc, room temperature
value.kind: solubility

Q: Form field: reported solubility of C[C@H](NC(=O)Cn1cnc2cccc(C#N)c21)c1ccc(C(C)(C)C#N)cc1 [Form A]
Result: 22 to 44 mg/mL

---

# assay.overview: Approximate solubility of crystals of Form A at room temperature
# Format: physicochemical
# particulars: 25 °C, organic solvent or mixture, thermodynamic from solid; MTBE, room temperature
value.kind: solubility

Q: What solubility value was documented for this compound, C[C@H](NC(=O)Cn1cnc2cccc(C#N)c21)c1ccc(C(C)(C)C#N)cc1 [Form A] ?
Result: < 1800 µg/mL

---

# assay.overview: Approximate solubility of crystals of Form A at room temperature
# Format: physicochemical
# particulars: 25 °C, organic solvent or mixture, thermodynamic from solid; CHCl3, room temperature
# Method: Approximately 2 mg solids were added into a 3-mL glass vial. Solvents as listed in Table 7 were then added stepwise into the vials until the solids were dissolved or a total volume of 1 mL was reached. The results are summarized in Table 7, and were used to guide solvent selection in the polymorph screening.
value.kind: solubility

Q: Any idea what its solubility is? The compound is C[C@H](NC(=O)Cn1cnc2cccc(C#N)c21)c1ccc(C(C)(C)C#N)cc1 [Form A]
Result: > 42 mg/mL

---

# assay.overview: Approximate solubility of crystals of Form A at room temperature
# Type: physicochemical
# particulars: 25 °C, organic solvent or mixture, thermodynamic from solid; 2-MeTHF, room temperature
value.kind: solubility

Q: Fill blank: measured solubility of the compound C[C@H](NC(=O)Cn1cnc2cccc(C#N)c21)c1ccc(C(C)(C)C#N)cc1 [Form A] is ____.
Result: > 36 mg/mL

---

# assay.overview: Approximate solubility of crystals of Form A at room temperature
# Format: physicochemical
# particulars: organic solvent or mixture, thermodynamic from solid; MeOH, room temperature (25° C.±2° C.)
value.kind: solubility

Q: solubility for C[C@H](NC(=O)Cn1cnc2cccc(C#N)c21)c1ccc(C(C)(C)C#N)cc1 [Form A] ?
Result: > 42 mg/mL

---

# assay.overview: Approximate solubility of crystals of Form A at room temperature
# Format: physicochemical
# particulars: 25 °C, organic solvent or mixture, thermodynamic from solid; DCM, room temperature
value.kind: solubility

Q: Please report the recorded solubility for C[C@H](NC(=O)Cn1cnc2cccc(C#N)c21)c1ccc(C(C)(C)C#N)cc1 [Form A] .
Result: > 40 mg/mL
